Recorded pIC50 for the following compounds
- System: cGAS activity in Reporter THP1 cell line
- test.name: Cellular assay to measure cGAS activity: ISRE-Gaussia luciferase reporter THP1 cells transfected with ISD
- Assay type: cell-based
- cond: Homo sapiens, THP-1, Table 4, Gaussia luciferase
pIC50: −log10 of the molar value.
measured.attribute: pIC50

>>> value_observed("O=C(O)CCCCCNc1cc(-n2ccnc2)c2ccc(Cl)c(Cl)c2n1")
"> 5.70"
>>> value_observed("O=C(O)CCOC[C@@H]1CCCN(c2cc(-c3cn[nH]c3)c3ccc(Cl)c(Cl)c3n2)C1")
"> 5.70"
>>> value_observed("O=C(O)c1cnn(CC[C@@H]2CCCN2c2cc(-n3ccnc3)c3ccc(Cl)c(Cl)c3n2)c1")
"5.00 to 5.70"
>>> value_observed("COC(=O)[C@@H]1C[C@H](F)CN1c1cc(-n2ccnc2)c2ccc(Cl)c(Cl)c2n1")
"5.00 to 5.70"
>>> value_observed("O=C(O)CCCC[C@@H]1CCCN1c1cc(-c2cn[nH]c2)c2ccc(Cl)c(Cl)c2n1")
"> 5.70"
>>> value_observed("O=C(O)COCC[C@@H]1CC[C@@H](C(=O)O)N1c1cc(-n2ccnc2)c2ccc(Cl)c(Cl)c2n1")
"< 5.00"
>>> value_observed("O=C(OCC(F)(F)F)[C@@H]1[C@@H](O)CCN1c1cc(-n2ccnc2)c2ccc(Cl)c(Cl)c2n1")
"> 5.70"
>>> value_observed("C[C@@]1(COCCC(=O)O)CCCN1c1cc(-n2ccnc2)c2ccc(Cl)c(Cl)c2n1")
"> 5.70"
>>> value_observed("O=C(O)[C@@H]1C[C@@H](F)CN1c1cc(-n2ccnc2)c2ccc(Cl)c(Cl)c2n1")
"< 5.00"
>>> value_observed("CN(CCCOCCC(=O)O)c1cc(-n2ccnc2)c2ccc(Cl)c(Cl)c2n1")
"> 5.70"
>>> value_observed("COc1cc(C(=O)O)cc(-c2cc(-n3ccnc3)c3ccc(Cl)cc3n2)c1")
"5.00 to 5.70"
>>> value_observed("O=C(O)[C@@H]1CCCN1c1cc(-n2ccnc2)c2ccc(Cl)c(Cl)c2n1")
"5.00 to 5.70"
>>> value_observed("O=C(O)CCOC[C@@H]1CC(F)(F)CN1c1cc(-n2ccnc2)c2ccc(Cl)c(Cl)c2n1")
"> 5.70"
>>> value_observed("COC(=O)[C@@H]1[C@H](F)CCN1c1cc(-n2ccnc2)c2ccc(Cl)c(Cl)c2n1")
"5.00 to 5.70"
>>> value_observed("COC(=O)[C@H]1CCCN1C(=O)C[C@@H]1CCCN1c1cc(-n2ccnc2)c2ccc(Cl)c(Cl)c2n1")
"5.00 to 5.70"
>>> value_observed("C[C@H]1C[C@@H](C(=O)O)N(c2cc(-n3ccnc3)c3ccc(Cl)c(Cl)c3n2)C1")
"5.00 to 5.70"
>>> value_observed("Clc1ccc2c(-n3ccnc3)cc(N3CCCC3c3ncc[nH]3)nc2c1Cl (centres unmarked)")
"5.00 to 5.70"
